test: Bioavailability after oral administration: blood (serum) vitamin C concentration by HPLC
Assay type: in vivo
experimental setup: male, SD rat, 10 ml(200 mg)/kg, read-out: AUC0-24 of vitamin C
quantity: AUC(0-t)

O=C1O[C@H]([C@@H](O)CO)C(O)=C1O [vitamin C, ascorbic acid]
234 µg·h/mL

====

test: Bioavailability after oral administration: blood (serum) vitamin C concentration by HPLC
Format: in vivo
experimental setup: male, SD rat, 10 ml(200 mg)/kg, read-out: T1/2 of vitamin C (converted)
quantity: half-life (h)

O=C1O[C@H]([C@@H](O)CO)C(O)=C1O
27.8

====

test: Bioavailability after oral administration: blood (serum) vitamin C concentration by HPLC
Type: in vivo
experimental setup: male, SD rat, 10 ml(200 mg)/kg
quantity: Tmax (h)

O=C1O[C@H]([C@@H](O)CO)C(O)=C1O
7.67
